EC50 overview
Molecular target: SARS-CoV-2 RBD (RBD-2) (SARS-CoV-2)
Assay: ELISA
assay readout: EC50 (µg/mL)

1) L6.dP02F01 (antibody, V domains shown, human IgG1) VH: EVQLVESGGGLVQPGRSLRLSCAASGFTFDDYAMHWVRQAPGKGLEWVSGISWNSGSIAFAGSVKGRFTISRDNAKNSLYLQMNSLRAEDTALYYCAKDQGYSYGNYFDYWGQGTLVTVSS VL: QLVLTQPPSVSVAPGKTARITCGGNNIGSKSVYWYQQKPGQAPVLVVYDDSDRPSGIPERFSGSNSGNTATLTISRVEAGDEADYYCQVWDSSSDHPYVFGSGTKVTVL: 0.013
2) L12.bP12H09 (antibody, V domains shown, human IgG1) VH: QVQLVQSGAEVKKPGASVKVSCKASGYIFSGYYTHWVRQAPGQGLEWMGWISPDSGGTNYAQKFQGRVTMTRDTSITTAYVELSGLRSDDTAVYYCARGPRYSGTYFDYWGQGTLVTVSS VL: QSALTQPASVSGSPGQSITISCTGTSSDVGGYNHVSWYQQHPGKAPKLMIYDVSNRPSGVSNRFSGSKSGNTASLTISGLQAEDEADYYCSSYTSSSAQLFGGGTKLTVL: 0.483
3) L12.bP12E05 (antibody, V domains shown, human IgG1) VH: EVQLVQSGAEVKKPGASVKVTCKTSGYIFSGYYMHWVRQVPGQGLEWMGWISPDSGATNYAQKFQGRVTMTRDTSITTSYVELTWLKSDDTAVYYCARGPRYSGTYFDFWGQGTLVTVSS VL: QAVVTQPASVSGSPGQSLTISCTGTSSDIGGFNYVSWYQQHPGKAPKLMIFDVSKRPSGVPNRFSGSKSGNTASLTISGLQAEDEGDYYCSSYTISSAQVFGGGTKLTVL: 1.17
4) L12.cP08A09 (antibody, V domains shown, human IgG1) VH: QVQLVQSGAEVKKPGASVKVSCKASGYIYSGYYMHWVRQAPGQGLEWMGWISPDSGGTNYAQRFQGRVTMTRDTSTTTAYMELSRLRSDDTAVYYCARGPRYSGTYFDYWGQGTLVTVSS VL: QSALTQPASVSGSPGQSITISCTGTSSDVGGYNYVSWYQQHPDKAPKLMIYDVSNRPSGVSNRFSGSKSGNTASLTISGLQAEDEADYYCSSYTSGSTQVFGGGTKLTVL: 0.666
